Origin of values: the NIST ThermoML archive (doi:10.1021/je900482x)

assay: isobaric coefficient of expansion; conditions: 328.15 K; 50000 kPa; Liquid; Microcalorimeter
EXPERIMENTAL READOUT: isobaric coefficient of expansion

Some entries whose results are on file:
molecule="CCCC[n+]1cccc(C)c1.F[B-](F)(F)F [1-butyl-3-methylpyridinium tetrafluoroborate]" experimental_readout="isobaric coefficient of expansion" reported_value="0.000531 1/K"
molecule="CCCCCCCC[n+]1ccn(C)c1.F[B-](F)(F)F [1-methyl-3-octylimidazolium tetrafluoroborate]" experimental_readout="isobaric coefficient of expansion" reported_value="0.000531 1/K"
molecule="CCn1cc[n+](C)c1.F[B-](F)(F)F [1-ethyl-3-methylimidazolium tetrafluoroborate]" experimental_readout="isobaric coefficient of expansion" reported_value="0.000528 1/K"
molecule=CCn1cc[n+](C)c1.O=S(=O)([N-]S(=O)(=O)C(F)(F)F)C(F)(F)F experimental_readout="isobaric coefficient of expansion" reported_value="0.00057 1/K"
molecule="CCCCCCn1cc[n+](C)c1.F[B-](F)(F)F [1-hexyl-3-methylimidazolium tetrafluoroborate]" experimental_readout="isobaric coefficient of expansion" reported_value="0.000531 1/K"

Problem: Consider the molecule shown here: "CCCCCC[n+]1ccn(C)c1.O=S(=O)([N-]S(=O)(=O)C(F)(F)F)C(F)(F)F" What is its recorded isobaric coefficient of expansion?
Result: 0.000567 1/K

====

experiment: isobaric coefficient of expansion; settings: 278.15 K; 20000 kPa; Liquid; Microcalorimeter
# isobaric coefficient of expansion per record follows

Some entries whose results are on file:
molecule=CCn1cc[n+](C)c1.O=S(=O)([N-]S(=O)(=O)C(F)(F)F)C(F)(F)F experimental_readout="isobaric coefficient of expansion" reported_value="0.000645 1/K"
molecule="CCCCCCCC[n+]1ccn(C)c1.F[B-](F)(F)F [1-methyl-3-octylimidazolium tetrafluoroborate]" experimental_readout="isobaric coefficient of expansion" reported_value="0.000598 1/K"
molecule=CCCCCC[n+]1ccn(C)c1.O=S(=O)([N-]S(=O)(=O)C(F)(F)F)C(F)(F)F experimental_readout="isobaric coefficient of expansion" reported_value="0.000641 1/K"
molecule="CCn1cc[n+](C)c1.F[B-](F)(F)F [1-ethyl-3-methylimidazolium tetrafluoroborate]" experimental_readout="isobaric coefficient of expansion" reported_value="0.000591 1/K"

Problem: Consider the molecule shown here: CCCC[n+]1cccc(C)c1.F[B-](F)(F)F [1-butyl-3-methylpyridinium tetrafluoroborate] What is its recorded isobaric coefficient of expansion?
Result: 0.000591 1/K

Problem: Consider the molecule shown here: CCCCCCn1cc[n+](C)c1.F[B-](F)(F)F [1-hexyl-3-methylimidazolium tetrafluoroborate] What is its recorded isobaric coefficient of expansion?
Result: 0.000598 1/K

====

test: isobaric coefficient of expansion; conditions: 328.15 K; 30000 kPa; Liquid; Microcalorimeter
# isobaric coefficient of expansion per record follows

molecule=CCn1cc[n+](C)c1.O=S(=O)([N-]S(=O)(=O)C(F)(F)F)C(F)(F)F reported_value="0.000601 1/K"
molecule="CCn1cc[n+](C)c1.F[B-](F)(F)F [1-ethyl-3-methylimidazolium tetrafluoroborate]" reported_value="0.00055 1/K"
molecule="CCCC[n+]1cccc(C)c1.F[B-](F)(F)F [1-butyl-3-methylpyridinium tetrafluoroborate]" reported_value="0.000549 1/K"
molecule="CCCCCCn1cc[n+](C)c1.F[B-](F)(F)F [1-hexyl-3-methylimidazolium tetrafluoroborate]" reported_value="0.000555 1/K"
molecule=CCCCCC[n+]1ccn(C)c1.O=S(=O)([N-]S(=O)(=O)C(F)(F)F)C(F)(F)F reported_value="0.000599 1/K"

Problem: Consider the molecule shown here: CCCCCCCC[n+]1ccn(C)c1.F[B-](F)(F)F [1-methyl-3-octylimidazolium tetrafluoroborate] What is its recorded isobaric coefficient of expansion?
Result: 0.000555 1/K

====

test: isobaric coefficient of expansion; conditions: 288.15 K; 30000 kPa; Liquid; Microcalorimeter
# isobaric coefficient of expansion per record follows

Some entries whose results are on file:
compound="CCCCCCn1cc[n+](C)c1.F[B-](F)(F)F [1-hexyl-3-methylimidazolium tetrafluoroborate]" reported_value="0.000579 1/K"
compound="CCn1cc[n+](C)c1.F[B-](F)(F)F [1-ethyl-3-methylimidazolium tetrafluoroborate]" reported_value="0.000574 1/K"
compound="CCCC[n+]1cccc(C)c1.F[B-](F)(F)F [1-butyl-3-methylpyridinium tetrafluoroborate]" reported_value="0.000575 1/K"

Problem: Consider the compound shown here: "CCn1cc[n+](C)c1.O=S(=O)([N-]S(=O)(=O)C(F)(F)F)C(F)(F)F" What is its recorded isobaric coefficient of expansion?
Result: 0.000623 1/K

Problem: Consider the compound shown here: "CCCCCC[n+]1ccn(C)c1.O=S(=O)([N-]S(=O)(=O)C(F)(F)F)C(F)(F)F" What is its recorded isobaric coefficient of expansion?
Result: 0.00062 1/K

Problem: Consider the compound shown here: CCCCCCCC[n+]1ccn(C)c1.F[B-](F)(F)F [1-methyl-3-octylimidazolium tetrafluoroborate] What is its recorded isobaric coefficient of expansion?
Result: 0.000579 1/K

====

test: isobaric coefficient of expansion; settings: 348.15 K; 5000 kPa; Liquid; Microcalorimeter
EXPERIMENTAL READOUT: isobaric coefficient of expansion

compound=CCn1cc[n+](C)c1.O=S(=O)([N-]S(=O)(=O)C(F)(F)F)C(F)(F)F experimental_readout="isobaric coefficient of expansion" reported_value="0.00064 1/K"
compound="CCCCCCCC[n+]1ccn(C)c1.F[B-](F)(F)F [1-methyl-3-octylimidazolium tetrafluoroborate]" experimental_readout="isobaric coefficient of expansion" reported_value="0.000588 1/K"
compound="CCCC[n+]1cccc(C)c1.F[B-](F)(F)F [1-butyl-3-methylpyridinium tetrafluoroborate]" experimental_readout="isobaric coefficient of expansion" reported_value="0.000568 1/K"

Problem: Consider the compound shown here: "CCCCCC[n+]1ccn(C)c1.O=S(=O)([N-]S(=O)(=O)C(F)(F)F)C(F)(F)F" What is its recorded isobaric coefficient of expansion?
Result: 0.000644 1/K

Problem: Consider the compound shown here: CCn1cc[n+](C)c1.F[B-](F)(F)F [1-ethyl-3-methylimidazolium tetrafluoroborate] What is its recorded isobaric coefficient of expansion?
Result: 0.000579 1/K

Problem: Consider the compound shown here: CCCCCCn1cc[n+](C)c1.F[B-](F)(F)F [1-hexyl-3-methylimidazolium tetrafluoroborate] What is its recorded isobaric coefficient of expansion?
Result: 0.000588 1/K

====

test: isobaric coefficient of expansion; conditions: 348.15 K; 50000 kPa; Liquid; Microcalorimeter
EXPERIMENTAL READOUT: isobaric coefficient of expansion

compound="CCCCCCn1cc[n+](C)c1.F[B-](F)(F)F [1-hexyl-3-methylimidazolium tetrafluoroborate]" experimental_readout="isobaric coefficient of expansion" reported_value="0.000522 1/K"
compound="CCCCCCCC[n+]1ccn(C)c1.F[B-](F)(F)F [1-methyl-3-octylimidazolium tetrafluoroborate]" experimental_readout="isobaric coefficient of expansion" reported_value="0.000522 1/K"
compound=CCn1cc[n+](C)c1.O=S(=O)([N-]S(=O)(=O)C(F)(F)F)C(F)(F)F experimental_readout="isobaric coefficient of expansion" reported_value="0.000565 1/K"
compound="CCn1cc[n+](C)c1.F[B-](F)(F)F [1-ethyl-3-methylimidazolium tetrafluoroborate]" experimental_readout="isobaric coefficient of expansion" reported_value="0.000521 1/K"
compound="CCCC[n+]1cccc(C)c1.F[B-](F)(F)F [1-butyl-3-methylpyridinium tetrafluoroborate]" experimental_readout="isobaric coefficient of expansion" reported_value="0.000526 1/K"

Problem: Consider the compound shown here: "CCCCCC[n+]1ccn(C)c1.O=S(=O)([N-]S(=O)(=O)C(F)(F)F)C(F)(F)F" What is its recorded isobaric coefficient of expansion?
Result: 0.000559 1/K

====

# isobaric coefficient of expansion per record follows
assay: isobaric coefficient of expansion; conditions: 328.15 K; 5000 kPa; Liquid; Microcalorimeter

Problem: Consider the compound shown here: CCCCCCn1cc[n+](C)c1.F[B-](F)(F)F [1-hexyl-3-methylimidazolium tetrafluoroborate] What is its recorded isobaric coefficient of expansion?
Result: 0.000594 1/K

Problem: Consider the compound shown here: CCn1cc[n+](C)c1.F[B-](F)(F)F [1-ethyl-3-methylimidazolium tetrafluoroborate] What is its recorded isobaric coefficient of expansion?
Result: 0.000585 1/K

Problem: Consider the compound shown here: CCCC[n+]1cccc(C)c1.F[B-](F)(F)F [1-butyl-3-methylpyridinium tetrafluoroborate] What is its recorded isobaric coefficient of expansion?
Result: 0.000575 1/K

Problem: Consider the compound shown here: "CCn1cc[n+](C)c1.O=S(=O)([N-]S(=O)(=O)C(F)(F)F)C(F)(F)F" What is its recorded isobaric coefficient of expansion?
Result: 0.000645 1/K

Problem: Consider the compound shown here: "CCCCCC[n+]1ccn(C)c1.O=S(=O)([N-]S(=O)(=O)C(F)(F)F)C(F)(F)F" What is its recorded isobaric coefficient of expansion?
Result: 0.00065 1/K

Problem: Consider the compound shown here: CCCCCCCC[n+]1ccn(C)c1.F[B-](F)(F)F [1-methyl-3-octylimidazolium tetrafluoroborate] What is its recorded isobaric coefficient of expansion?
Result: 0.000594 1/K
